# experimental-details: gradient 5% acetonitrile 3 min, to 50% in 2 min, to 85% in 15 min, held 3 min, 100 µL/min
# study-conditions: column: Zorbax Extend-C18 2.1 x 50 mm; eluents: water / acetonitrile, 0.1% formic acid
Catalogue of compounds with associated RP-LC retention time

{"compound": "COc1ccccc1NC(=O)N1CCC2(CC1)N=C(c1cccc(F)c1)C(=O)N2", "scale-unit": "s", "RP-LC retention time": 840}
{"compound": "COc1ccc(CCNC(=O)C2CCCN(S(=O)(=O)c3ccc4c(ccn4C)c3)C2)cc1OC (centres undefined)", "scale-unit": "s", "RP-LC retention time": 828}
{"compound": "O=S(=O)(NCCc1csc(-c2cccc(F)c2)n1)c1ccccc1Cl", "scale-unit": "s", "RP-LC retention time": 989}
{"compound": "O=C(NCc1ccccc1F)c1sc2ncccc2c1-n1cccc1", "scale-unit": "s", "RP-LC retention time": 961}
